- target_desc: Tyrosyl-tRNA synthetase, putative (Trypanosoma cruzi (strain CL Brener))
- measurement_description: Trypanosoma cruzi tyrosyl tRNA synthetase (TcYRS) SOP
- Type: functional
- Set-up: scale not given: direction of the effect not stated beside the values
- condition_label: 30 µM
Assign Y whenever Percent Effect does not fall below 10%; assign N whenever it does.

Observe how each entry below is paired with its result.
INSERT INTO results (compound, assigned_class) VALUES
  ('Cc1cccc(CNC(CN2CCN(C)CC2)c2ccccc2)c1 (centres undefined)', 'Y'),
  ('COc1cc(/C=C/c2ncc(C(=O)O)s2)cc(Cl)c1O', 'Y'),
  ('O=C1OCCN1CCc1nc(-c2cc3c4c(c2)CC(=O)N4CCC3)cs1', 'N');

Problem: Reported Percent Effect at or above 10%? COCCN1C(=O)[C@]2(CC[C@@H]3CN(C(=O)NCC(C)C)C[C@@H]32)N=C1C
Solution: N

Problem: Please do the same for O=C(c1cc(Cl)c2c(c1)OCO2)N1CCN(c2ccccn2)CC1 as well.
Solution: Y
